Tested target: Keap1/Nrf2 (Homo sapiens, UniProt Q14145+Q16236)
Sequence (Q16236 whole entry): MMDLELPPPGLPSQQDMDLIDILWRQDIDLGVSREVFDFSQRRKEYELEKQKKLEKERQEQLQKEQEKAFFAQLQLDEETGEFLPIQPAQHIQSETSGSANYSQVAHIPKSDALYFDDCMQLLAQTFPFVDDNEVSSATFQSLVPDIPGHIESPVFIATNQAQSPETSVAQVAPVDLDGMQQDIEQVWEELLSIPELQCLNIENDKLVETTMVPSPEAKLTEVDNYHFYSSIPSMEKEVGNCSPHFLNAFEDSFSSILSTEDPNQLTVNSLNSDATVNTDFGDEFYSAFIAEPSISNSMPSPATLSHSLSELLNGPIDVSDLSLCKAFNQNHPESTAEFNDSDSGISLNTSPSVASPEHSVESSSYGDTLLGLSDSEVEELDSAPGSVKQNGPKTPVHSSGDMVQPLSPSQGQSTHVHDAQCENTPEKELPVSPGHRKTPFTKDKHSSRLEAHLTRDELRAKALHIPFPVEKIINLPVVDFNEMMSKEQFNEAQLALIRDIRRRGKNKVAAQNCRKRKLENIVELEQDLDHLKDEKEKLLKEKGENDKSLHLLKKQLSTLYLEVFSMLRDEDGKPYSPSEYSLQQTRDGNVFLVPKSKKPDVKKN
Sequence (Q14145 whole entry): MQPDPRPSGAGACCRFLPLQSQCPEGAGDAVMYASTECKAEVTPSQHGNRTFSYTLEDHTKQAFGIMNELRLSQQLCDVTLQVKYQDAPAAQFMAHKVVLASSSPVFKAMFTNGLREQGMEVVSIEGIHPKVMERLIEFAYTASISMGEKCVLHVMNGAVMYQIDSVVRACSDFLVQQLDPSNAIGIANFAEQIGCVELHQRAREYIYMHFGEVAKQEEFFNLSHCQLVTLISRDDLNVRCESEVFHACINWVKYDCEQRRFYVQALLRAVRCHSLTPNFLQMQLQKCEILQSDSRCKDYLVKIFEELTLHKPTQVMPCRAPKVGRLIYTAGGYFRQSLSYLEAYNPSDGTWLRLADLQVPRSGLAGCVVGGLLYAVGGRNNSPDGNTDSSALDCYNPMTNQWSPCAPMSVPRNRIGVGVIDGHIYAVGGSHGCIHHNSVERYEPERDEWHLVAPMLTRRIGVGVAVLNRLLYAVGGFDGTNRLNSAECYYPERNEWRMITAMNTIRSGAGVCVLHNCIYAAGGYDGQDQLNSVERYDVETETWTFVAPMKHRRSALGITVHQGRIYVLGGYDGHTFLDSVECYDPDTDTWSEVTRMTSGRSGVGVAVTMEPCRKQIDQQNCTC
Protocol summary: Inhibition of Keap1-Nrf2 (unknown origin)
Observable: IC50
Reply with the number and its unit after it.

Quick one: IC50 for CC1(C)OB(c2ccc(COn3c(C(=O)NCc4ccc(-c5ccccc5)cc4)cccc3=O)cc2)OC1(C)C ?
96.7 nM

----------
# IC50 per entry
Tested target: UniProt P14780
Sequence (P14780 whole entry): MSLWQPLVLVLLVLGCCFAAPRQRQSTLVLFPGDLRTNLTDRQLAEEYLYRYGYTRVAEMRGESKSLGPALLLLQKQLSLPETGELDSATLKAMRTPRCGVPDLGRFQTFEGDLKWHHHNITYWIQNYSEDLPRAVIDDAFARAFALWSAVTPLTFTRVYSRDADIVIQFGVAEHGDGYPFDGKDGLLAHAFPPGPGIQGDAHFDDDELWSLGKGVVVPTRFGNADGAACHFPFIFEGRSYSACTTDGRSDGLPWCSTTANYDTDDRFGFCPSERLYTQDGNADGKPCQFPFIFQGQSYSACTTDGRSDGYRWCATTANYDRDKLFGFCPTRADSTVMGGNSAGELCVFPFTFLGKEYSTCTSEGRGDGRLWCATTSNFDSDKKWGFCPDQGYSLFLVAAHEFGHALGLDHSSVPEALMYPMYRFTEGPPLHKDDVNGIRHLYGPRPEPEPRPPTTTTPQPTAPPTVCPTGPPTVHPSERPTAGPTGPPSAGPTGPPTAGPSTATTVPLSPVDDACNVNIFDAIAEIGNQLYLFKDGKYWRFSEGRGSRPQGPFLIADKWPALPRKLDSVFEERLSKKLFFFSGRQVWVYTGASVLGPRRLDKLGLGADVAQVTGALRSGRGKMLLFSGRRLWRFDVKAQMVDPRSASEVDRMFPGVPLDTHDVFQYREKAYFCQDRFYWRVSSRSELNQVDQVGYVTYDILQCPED

1) CC1(C)OB(c2ccc(COn3c(C(=O)NCc4ccc(-c5ccccc5)cc4)cccc3=O)cc2)OC1(C)C = > 1000 µM

Now look at this entry.
What does the record list as IC50 for CC1(C)OB(c2ccc(COc3c(C(=O)NCc4ccc(-c5ccccc5)cc4)occc3=O)cc2)OC1(C)C ?
> 1000 µM
